assay: melting temperature; melt of duplexes; details: sodium 0.0675 M; strand 1 µM
Measured Parameter: Tm (°C)

>>> df
                                  substance  value_unit  number
0  CGACGTGCCGTATGTGCTG+CAGCACATCAGGCACGTCG (((((((((..((((((((+))))))))..)))))))))          °C    57.1
1  CGACGTGCCCTATGTGCTG+CAGCACATCGGGCACGTCG ((((((((((.((((((((+)))))))).))))))))))          °C    58.7
2  CGACGTGCGGGATGTGCTG+CAGCACATATGGCACGTCG ((((((((...((((((((+))))))))...))))))))          °C    50.8
3  CGACGTGCGGAATGTGCTG+CAGCACATCCAGCACGTCG ((((((((.(.((((((((+)))))))).).))))))))          °C    55.1
4  CGACGTGCCCAATGTGCTG+CAGCACATGGAGCACGTCG ((((((((.(.((((((((+)))))))).).))))))))          °C    55.5
5  CGACGTGCATTATGTGCTG+CAGCACATTCGGCACGTCG ((((((((...((((((((+))))))))...))))))))          °C    48.5

###

experiment: melting temperature; melt of duplexes; details: sodium 0.0675 M; strand 1 µM
t means recorded Tm is 50 °C or above; f means it is below 50 °C.

In [3]: df
Out[3]:
                                   substance  classification
 0  CGACGTGCCTTATGTGCTG+CAGCACATAAAGCACGTCG ((((((((.((((((((((+)))))))))).))))))))               t
 1  CGACGTGCTCTATGTGCTG+CAGCACATTTCGCACGTCG ((((((((...((((((((+))))))))...))))))))               f
 2  CGACGTGCGTGATGTGCTG+CAGCACATCAAGCACGTCG ((((((((.((((((((((+)))))))))).))))))))               t
 3  CGACGTGCAGAATGTGCTG+CAGCACATTGGGCACGTCG ((((((((..(((((((((+)))))))))..))))))))               t
 4  CGACGTGCTTCATGTGCTG+CAGCACATACCGCACGTCG ((((((((...((((((((+))))))))...))))))))               f
 5  CGACGTGCACAATGTGCTG+CAGCACATAACGCACGTCG ((((((((...((((((((+))))))))...))))))))               f
 6  CGACGTGCCATATGTGCTG+CAGCACATCTGGCACGTCG ((((((((((.((((((((+)))))))).))))))))))               t
 7  CGACGTGCGCGATGTGCTG+CAGCACATAGTGCACGTCG ((((((((.(.((((((((+)))))))).).))))))))               t
 8  CGACGTGCCAGATGTGCTG+CAGCACATTCGGCACGTCG (((((((((..((((((((+))))))))..)))))))))               t
 9  CGACGTGCCAAATGTGCTG+CAGCACATCATGCACGTCG ((((((((...((((((((+))))))))...))))))))               f
10  CGACGTGCGGGATGTGCTG+CAGCACATACTGCACGTCG ((((((((.(.((((((((+)))))))).).))))))))               t
11  CGACGTGCGTAATGTGCTG+CAGCACATCCCGCACGTCG (((((((((..((((((((+))))))))..)))))))))               t

###

test: melting temperature; melt of duplexes; details: sodium 0.0675 M; strand 1 µM
Measured Parameter: Tm

>>> print(df.to_string())
                                  substance   result
0  CGACGTGCAGCATGTGCTG+CAGCACATATTGCACGTCG (((((((((..((((((((+))))))))..)))))))))  49.1 °C
1  CGACGTGCATTATGTGCTG+CAGCACATCTTGCACGTCG (((((((((..((((((((+))))))))..)))))))))  51.1 °C
2  CGACGTGCGATATGTGCTG+CAGCACATCTTGCACGTCG ((((((((.(.((((((((+)))))))).).))))))))  51.2 °C
3  CGACGTGCATCATGTGCTG+CAGCACATTCTGCACGTCG (((((((((..((((((((+))))))))..)))))))))  50.5 °C
4  CGACGTGCGGAATGTGCTG+CAGCACATATGGCACGTCG ((((((((...((((((((+))))))))...))))))))  50.8 °C
5  CGACGTGCCGGATGTGCTG+CAGCACATAACGCACGTCG ((((((((...((((((((+))))))))...))))))))    50 °C
6  CGACGTGCTTGATGTGCTG+CAGCACATAACGCACGTCG ((((((((.(.((((((((+)))))))).).))))))))  50.8 °C
7  CGACGTGCGTTATGTGCTG+CAGCACATGCGGCACGTCG ((((((((...((((((((+))))))))...))))))))  49.6 °C

###

test: melting temperature; melt of duplexes; conditions: sodium 0.0675 M; strand 1 µM
With a cut-off of 50 °C, any Tm strictly below it is called MET; any Tm meeting it or above is called NOT MET.

>>> df
                                  substance  classification
0  CGACGTGCCTGATGTGCTG+CAGCACATTTGGCACGTCG (((((((((..((((((((+))))))))..)))))))))         NOT MET
1  CGACGTGCTACATGTGCTG+CAGCACATAGTGCACGTCG ((((((((...((((((((+))))))))...))))))))             MET
2  CGACGTGCTGGATGTGCTG+CAGCACATCGTGCACGTCG ((((((((..(((((((((+)))))))))..))))))))         NOT MET
3  CGACGTGCCTAATGTGCTG+CAGCACATTAGGCACGTCG (((((((((((((((((((+)))))))))))))))))))         NOT MET
4  CGACGTGCACTATGTGCTG+CAGCACATTTCGCACGTCG ((((((((...((((((((+))))))))...))))))))             MET
5  CGACGTGCAATATGTGCTG+CAGCACATAAGGCACGTCG ((((((((..(((((((((+)))))))))..))))))))         NOT MET
6  CGACGTGCGGAATGTGCTG+CAGCACATTTAGCACGTCG ((((((((..(((((((((+)))))))))..))))))))         NOT MET
7  CGACGTGCATAATGTGCTG+CAGCACATGAAGCACGTCG ((((((((.(.((((((((+)))))))).).))))))))         NOT MET
8  CGACGTGCACAATGTGCTG+CAGCACATAAGGCACGTCG ((((((((...((((((((+))))))))...))))))))             MET
9  CGACGTGCCGCATGTGCTG+CAGCACATTTTGCACGTCG ((((((((...((((((((+))))))))...))))))))             MET

###

test: melting temperature; melt of duplexes; settings: sodium 0.0675 M; strand 1 µM
Each item that follows carries a reported Tm.
Measured Parameter: Tm (°C)

>>> print(df.to_string())
                                   substance  number
 0  CGACGTGCAACATGTGCTG+CAGCACATTGGGCACGTCG ((((((((...((((((((+))))))))...))))))))    50.1
 1  CGACGTGCGCCATGTGCTG+CAGCACATAATGCACGTCG ((((((((...((((((((+))))))))...))))))))    48.6
 2  CGACGTGCCGGATGTGCTG+CAGCACATTGCGCACGTCG ((((((((...((((((((+))))))))...))))))))    49.9
 3  CGACGTGCCTGATGTGCTG+CAGCACATAACGCACGTCG ((((((((.(.((((((((+)))))))).).))))))))    48.8
 4  CGACGTGCCCGATGTGCTG+CAGCACATAGCGCACGTCG ((((((((.(.((((((((+)))))))).).))))))))    50.8
 5  CGACGTGCGTAATGTGCTG+CAGCACATATTGCACGTCG ((((((((...((((((((+))))))))...))))))))    50.5
 6  CGACGTGCCGTATGTGCTG+CAGCACATCGTGCACGTCG ((((((((...((((((((+))))))))...))))))))      51
 7  CGACGTGCGAGATGTGCTG+CAGCACATGCTGCACGTCG ((((((((...((((((((+))))))))...))))))))    50.4
 8  CGACGTGCCGGATGTGCTG+CAGCACATGATGCACGTCG ((((((((...((((((((+))))))))...))))))))      49
 9  CGACGTGCGTAATGTGCTG+CAGCACATCTTGCACGTCG ((((((((...((((((((+))))))))...))))))))    49.7
10  CGACGTGCAGAATGTGCTG+CAGCACATCAAGCACGTCG ((((((((...((((((((+))))))))...))))))))    50.6
